Biological target: CYP3A4 (Homo sapiens)
Construct: purchased Invitrogen, Madison, WI, USA
Sequence (P08684 2-503 limits assumed): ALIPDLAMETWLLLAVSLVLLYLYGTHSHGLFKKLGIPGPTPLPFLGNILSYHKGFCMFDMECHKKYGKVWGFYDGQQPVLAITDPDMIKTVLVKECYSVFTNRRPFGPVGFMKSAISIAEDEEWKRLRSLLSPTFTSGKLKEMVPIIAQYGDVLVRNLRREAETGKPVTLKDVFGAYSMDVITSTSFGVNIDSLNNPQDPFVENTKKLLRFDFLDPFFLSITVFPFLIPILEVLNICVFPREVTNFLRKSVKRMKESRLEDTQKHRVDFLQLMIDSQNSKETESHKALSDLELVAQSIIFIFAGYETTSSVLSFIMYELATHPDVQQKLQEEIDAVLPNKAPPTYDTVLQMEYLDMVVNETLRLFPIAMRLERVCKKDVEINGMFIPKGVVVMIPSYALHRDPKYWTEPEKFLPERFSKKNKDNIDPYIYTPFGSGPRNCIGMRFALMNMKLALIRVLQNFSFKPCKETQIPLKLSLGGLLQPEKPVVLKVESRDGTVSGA
Assay: CYP inhibition assay (Vivid CYP450 screening kit)
Assay type: in vitro ADME
Details: 10 μM compound
Quick list: CYP450 (% remaining Activity at 10 μM) CYP3A4 per entry.
value-type: CYP450 (% remaining Activity at 10 μM) CYP3A4 (%)

structure-as-smiles | experimental-value
CCOc1ccc(-n2c(SCC(=O)N(CC)Cc3ccccc3)nc3sc4c(c3c2=O)CCN(C)C4)cc1 | 44.1
CCCN(CCC)C(=O)CSc1nc2sc3c(c2c(=O)n1-c1ccc(OCC)cc1)CCN(C)C3 | 30.9
CCOc1ccc(-n2c(SCC(=O)N3CCC(c4ccccc4)CC3)nc3sc4c(c3c2=O)CCN(C(C)=O)C4)cc1 | 81.2
CCOc1ccc(-n2c(SCC(=O)N(C)Cc3ccccc3)nc3sc4c(c3c2=O)CCN(C)C4)cc1 | 36.5
CCOc1ccc(-n2c(SCC(=O)N(C)Cc3ccccc3)nc3sc4c(c3c2=O)CCN(C(C)=O)C4)cc1 | 49.3
CCOc1ccc(-n2c(SCC(=O)N3CCN(c4ccccc4)CC3)nc3sc4c(c3c2=O)CCN(C(C)=O)C4)cc1 | 72.2
CCCCN(CCCC)C(=O)CSc1nc2sc3c(c2c(=O)n1-c1ccc(OCC)cc1)CCN(C(C)=O)C3 | 38.9
CCOc1ccc(-n2c(SCC(=O)NC3CCN(C)CC3)nc3sc4c(c3c2=O)CCN(C(C)=O)C4)cc1 | 31.0
CCCN(CCC)C(=O)CSc1nc2sc3c(c2c(=O)n1-c1ccc(OCC)cc1)CCN(C(C)=O)C3 | 51.8
CCOc1ccc(-n2c(SCC(=O)N(CC)Cc3ccccc3)nc3sc4c(c3c2=O)CCN(C(C)=O)C4)cc1 | 56.6
CCOc1ccc(-n2c(SCC(=O)N3CCN(Cc4ccccc4)CC3)nc3sc4c(c3c2=O)CCN(C(C)=O)C4)cc1 | 89.1
CCOc1ccc(-n2c(SCC(=O)NCc3ccccc3)nc3sc4c(c3c2=O)CCN(C)C4)cc1 | 28.1
CCOc1ccc(-n2c(SCC(=O)NCc3ccccc3)nc3sc4c(c3c2=O)CCN(C(C)=O)C4)cc1 | 18.3
CCOc1ccc(-n2c(SCC(=O)NCc3ccc(Cl)cc3)nc3sc4c(c3c2=O)CCN(C(C)=O)C4)cc1 | 15.0
CCOc1ccc(-n2c(SCC(=O)Nc3ccc(OC)c(OC)c3)nc3sc4c(c3c2=O)CCN(C)C4)cc1 | 20.7
CCOc1ccc(-n2c(SCC(=O)NCc3ccc(Cl)cc3)nc3sc4c(c3c2=O)CCN(C)C4)cc1 | 42.6
CCOc1ccc(-n2c(SCC(=O)Nc3ccc(OC)c(OC)c3)nc3sc4c(c3c2=O)CCN(C(C)=O)C4)cc1 | 69.9
CCOc1ccc(-n2c(SCC(=O)N3CCC(Cc4ccccc4)CC3)nc3sc4c(c3c2=O)CCN(C(C)=O)C4)cc1 | 66.2
CCOc1ccc(-n2c(SCC(=O)Nc3ccc(C)cc3)nc3sc4c(c3c2=O)CCN(C)C4)cc1 | 23.0
CCOc1ccc(-n2c(SCC(=O)NCc3ccc(C)cc3)nc3sc4c(c3c2=O)CCN(C(C)=O)C4)cc1 | 17.3
CCOc1ccc(-n2c(SCC(=O)Nc3ccc(Cl)cc3)nc3sc4c(c3c2=O)CCN(C(C)=O)C4)cc1 | 70.7
